assayed target: T1, monkey MSLN on HEK293T-monkey MSLN recombinant cells (monkey)
T1 construct: Full-length precursor as transfected; processing on the cell is not described; also called HEK293-monkey MSLN
T1 chain: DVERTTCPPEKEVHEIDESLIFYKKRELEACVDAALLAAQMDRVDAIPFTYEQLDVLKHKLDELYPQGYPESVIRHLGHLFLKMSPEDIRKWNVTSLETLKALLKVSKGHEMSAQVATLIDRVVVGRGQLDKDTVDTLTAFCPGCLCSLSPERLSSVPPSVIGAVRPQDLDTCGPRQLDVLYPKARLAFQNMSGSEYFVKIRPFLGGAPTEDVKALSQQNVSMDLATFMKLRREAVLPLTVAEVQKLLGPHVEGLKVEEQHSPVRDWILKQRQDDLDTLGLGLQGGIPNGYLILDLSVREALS
procedure details: FACS, HEK293T-monkey MSLN cells
Field: Maximum_MFI. Provide a value for each of the binders that follow.
Note: unit MFI is implicit; provide only the numeric part.

stdin: Consider the binder F7.44.20-H7 (scFv, not shown: small tags and cut ends, also called S009-F7.44.20 humanized antibody VH1a + VL3) scFv: EVQLVQSGAEVKKPGASVKVSCKASGYTFTDYNMDWVRQAPGQGLEWMGDINPSTGGTIYNQKFQGRVTMTEDKSTSTVYMELSSLRSEDTAVYYCARRRIGTGYFDVWGQGTTVTVSSGGGGSGGGGSGGGGSEIVLTQSPATLSLSPGERATLSCSASSSVISSYLSWYQQKPGQSPRLLIYRTSNLASGIPARFSGSGSGTDYTLTISSLEPEDFAVYYCHQWSSFPYTFGGGTKVEIK and give its measured Maximum_MFI.
stdout: 6130

stdin: Let us now turn to F7.44.20-H12 (scFv, not shown: small tags and cut ends, also called S009-F7.44.20 humanized antibody VH2 + VL4) scFv: EVQLVQSGAEVKKPGASVKVSCKASGYTFTDYNMDWVRQAPGQGLEWMGDINPSTGGTIYNQKFNGRVTMTEDKSASTVYMELSSLRSEDTAVYYCARRRIGTGYFDVWGQGTTVTVSSGGGGSGGGGSGGGGSEIVLTQSPATLSLSPGERATLSCSASSSVISSYLSWYQQKPGSSPRLLIYRTSNLASGIPARFSGSGSGTDYTLTISSLEPEDFAVYYCHQWSSFPYTFGGGTKVEIK
stdout: 6670

stdin: Let us now turn to F7.44.20-VL-VH (scFv) QIVLTQSPALMSASPGEKVTLTCSASSSVISSYLSWYQQKPGSSPKLLIYRTSNLASGVPARFSGSGSGTSYSLTISSMEAEDAASYFCHQWSSFPYTFGGGTKLEIKGGGGSGGGGSGGGGSEVQLQQSGPELVKPGASVKIPCKASGYTFTDYNMDWVKQSHGKSLEWIGDINPSTGGTIYNQKFNGKATLTEDKSASTVYMEFRSLTSDDTAVYYCARRRIGTGYFDVWGTGTTVTVSS
stdout: 11100

stdin: Another binder to look at: F7.44.20-H14 (scFv, not shown: small tags and cut ends, also called S009-F7.44.20 humanized antibody VH2a + VL2) scFv: EVQLVQSGAEVKKPGASVKVSCKASGYTFTDYNMDWVRQAPGQGLEWMGDINPSTGGTIYNQKFSGRVTMTEDKSASTVYMELSSLRSEDTAVYYCARRRIGTGYFDVWGQGTTVTVSSGGGGSGGGGSGGGGSEIVLTQSPDFQSVTPKEKVTITCSASSSVISSYLSWYQQKPDQSPKLLIYRTSNLASGVPSRFSGSGSGTDYTLTINSLEAEDAATYYCHQWSSFPYTFGGGTKVEIK
stdout: 8130

stdin: Queued: F7.44.20 (scFv) EVQLQQSGPELVKPGASVKIPCKASGYTFTDYNMDWVKQSHGKSLEWIGDINPSTGGTIYNQKFNGKATLTEDKSASTVYMEFRSLTSDDTAVYYCARRRIGTGYFDVWGTGTTVTVSSGGGGSGGGGSGGGGSQIVLTQSPALMSASPGEKVTLTCSASSSVISSYLSWYQQKPGSSPKLLIYRTSNLASGVPARFSGSGSGTSYSLTISSMEAEDAASYFCHQWSSFPYTFGGGTKLEIK
stdout: 7040

meta.source: patent US20250250357A1
